Listing of entries alongside the reported inhibition.
Molecular target: Mannose-6-phosphate isomerase (Homo sapiens)
Assay: inhibitors of human PMI, primary screen, biochemical, fluorescence intensity, coupled assay (AID 1209);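 note: plate controls were DMSO vehicle for no effect and wells lacking substrate for full effect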
Settings: purified PMI enzyme, at 20 µM, hits give high values
Hit rate of the full screen: of about 190,000 compounds, about 810 (0.43%) were called active. This excerpt belongs to a sample that is enriched for actives.
Quick reminder: number only, in %, skip the unit.

Worked cases, inhibition given:
CCOC(=O)c1sc(NC(=O)CSc2nnc(Cc3ccccc3)o2)c(C#N)c1C    72.4
CCOC(=O)c1c(NC(=O)CSc2nnc(Cc3ccccc3)o2)sc(C(C)=O)c1C    9.9
CCOC(=O)c1sc(NC(=O)CSc2n[nH]c(-c3ccc(Cl)cc3Cl)n2)c(C#N)c1C    25.2
CCOC(=O)c1sc(NC(=O)CSc2nc(C)cc(C(F)(F)F)n2)c(C#N)c1C    26.6
CCOC(=O)c1sc(NC(=O)CSc2nc(C)cc(C)n2)c(C#N)c1C    4.2
O=[N+]([O-])c1cc(/C=N/n2c(-c3ccncc3)n[nH]c2=S)ccc1Cl    2.2

Now examine the next entry.
Prompt: Write down the reported inhibition of Cc1sc(NC(=O)COc2ccccc2)c(C#N)c1C , test system: Mannose-6-phosphate isomerase (Homo sapiens).
Response: 58.3
